- System: DeltatarO mutant
- Procedure Text: S. aureus survival, RN4220 and DeltatarO strains – OD600, teichoic acid synthesis inhibitors, primary screen (AID 463173)
- Experimental Conditions: S. aureus RN4220 wild type/DeltatarO growth, OD600, 18 h, active compounds read low, screened at 18.75 µg/mL (by protocol)
About 4,300 (8.3%) of roughly 52,000 compounds were called active. Only a selection was taken, and actives are over-represented in it overall.
Binning of survival into classes: 0 = under 70%, 1 = from 70% up to 90%, 2 = 90% and over

O=C(NCc1ccccc1Cl)c1ccc(Cn2c(=O)c3cccn3c3cccnc32)cc1 = 2
Clc1cccc(CNNc2nc(N3CCCCC3)nc(N3CCCCC3)n2)c1 = 2
CCOC(=O)c1ccc(NC(=O)C2CC(=O)N3CCCN=C3S2)cc1 (stereo not drawn) = 2
CCOc1ccc(-n2nc3ccc(NC(=O)Cc4ccccc4)cc3n2)cc1 = 1

Input CCc1nn(CC(=O)NCc2ccco2)c(=O)c2cc3cc(F)ccc3n12 ; output its category
2

Input CCCn1c2ccccc2c2cnn(CC(=O)NCC3CCN(Cc4ccccc4C)CC3)c(=O)c21 ; output its category
0

Input COc1ccccc1CNC(=O)CCNS(=O)(=O)c1ccc2c(c1)CCCC(=O)N2 ; output its category
0

Input Cc1ccc2cc3cc(C(=O)N4CCN(c5ccccc5)CC4)oc3nc2c1 ; output its category
0

Input O=C(O)CCc1ccc(-c2ccccc2)n1CC(=O)Nc1ccccc1C(F)(F)F ; output its category
0

* * *

- System: DeltatarO mutant
- Procedure Text: S. aureus survival, RN4220 and DeltatarO strains – OD600, teichoic acid synthesis inhibitors, primary screen (AID 463173)
- Experimental Conditions: S. aureus RN4220 wild type/DeltatarO growth, OD600, 18 h, active compounds read low, screened at 18.75 µg/mL (by protocol)
Out of some 52,000 compounds screened, about 4,300 (8.3%) were called active. The entries come from a sample that favours actives as a whole.
Property: survival (%)
Report the figure in % without appending any unit label.

COc1ccc(C2C=C(c3ccccc3)Nc3nc(NC(=O)/C=C/c4ccccc4Cl)nn32)cc1 (stereo unspecified) = 96
COc1cc(CNCCSc2nnnn2C)ccc1OCc1ccc(F)cc1 = 122
O=C(NCc1ccccc1)c1ccc(Cn2c(=O)c3cccn3c3cccnc32)cc1 = 108
Cc1cccc(CNC(=O)c2ccc(Cn3c(=O)c4cccn4c4cccnc43)cc2)c1 = 48

Indicate its recorded survival; the compound in question is O=c1[nH]c2ccc(NCc3ccc(-c4ccccc4)o3)cc2[nH]1
86

Indicate its recorded survival; the compound in question is COc1ccccc1/C=C/c1nc(C#N)c(NCCc2ccccc2)o1
71

Indicate its recorded survival; the compound in question is Cc1sc(-n2cccc2)c(C(C)NC(=O)Nc2cccc(C(F)(F)F)c2)c1C (stereo unspecified)
23

Indicate its recorded survival; the compound in question is CCOC(=O)c1c(C)[nH]c(C)c1S(=O)(=O)N1CCCC(C(=O)NCc2cccc(C)c2)C1 (stereo unspecified)
88

Indicate its recorded survival; the compound in question is CC(=O)c1c(C)oc2ccc(NS(=O)(=O)c3ccc(C(C)C)cc3)cc12
78

* * *

- Test system: DeltatarO mutant
- Procedure Text: S. aureus survival, RN4220 and DeltatarO strains – OD600, teichoic acid synthesis inhibitors, primary screen (AID 463173)
- Experimental Conditions: S. aureus RN4220 wild type/DeltatarO growth, OD600, 18 h, screened at 18.75 µg/mL (by protocol)
The whole screen tested about 52,000 compounds, of which about 4,300 (8.3%) were called active. No stated cut-off is given here; in the data, active means survival mostly below about 52% (no sharp cut-off); inactive means mostly above about 56%. What follows is part of a selection rich in actives, with near analogues and random picks from the rest.
// classify into active, inactive

CC(C)(C)OC(=O)N1CCC(c2c(C(=O)O)cnn2-c2ccc(F)cc2F)CC1 = inactive
CN(Cc1ccccc1)C(=O)CSc1nc(-c2ccc(F)cc2)cc(C(F)(F)F)n1 = active
Cc1cc(-n2c(C)nc3ccccc3c2=O)ccc1NC(=O)c1cccc([N+](=O)[O-])c1C = active
Cc1cccc(NS(=O)(=O)c2c(C)nc3sccn3c2=O)c1C = inactive
COc1ccc(-c2cc(C(F)(F)F)nc(SCC(=O)NCCc3ccccc3)n2)cc1OC = inactive

Test call for this compound, please: CCC(=O)NC1CC(=O)N(c2ccc3c(c2)OCCO3)C1 (stereo not given)
inactive

Test call for this compound, please: Cc1ccc(C(=O)Nc2ccc(-n3c(C)nc4ccccc4c3=O)cc2)cc1[N+](=O)[O-]
inactive

Test call for this compound, please: CCc1ccc(NC(=O)Cn2nc(C(F)(F)F)c3c2CCCC3)cc1
inactive

Test call for this compound, please: COc1ccc(-c2cc(C(F)(F)F)nc(SCC(=O)N(C)Cc3ccccc3)n2)cc1
inactive

Test call for this compound, please: Cc1cc(-n2c(C)nc3ccccc3c2=O)ccc1NC(=O)c1ccccc1[N+](=O)[O-]
inactive
